- System: Fer (mouse)
- experimental_details: phosphorylation enrichment, bacterial display (enrichment ratio); higher = better substrate or ligand; peptides without Tyr show the background
The following sequences are shown together with reported phosphorylation enrichment values.

Example cases with answers are listed next.
In [3]: df
Out[3]:
                        biosequence  target_under_test               readout_label  result
0   SLDLSYFHTSS [EMD_Y181_P183H_YF]        Fer (mouse)  phosphorylation enrichment   0.441
1  QRRFLYFFSFL [PTEN_Y176_V175L_YF]        Fer (mouse)  phosphorylation enrichment   0.862
2         GGCQEYTGAPF [NAXD_Y85_YF]        Fer (mouse)  phosphorylation enrichment   0.587
3  ADYYDYGRGLS [KHDRBS3_Y304_H306R]        Fer (mouse)  phosphorylation enrichment    1.22
4    KRLKDYLMVLQ [USP25_Y425_T427M]        Fer (mouse)  phosphorylation enrichment   0.507

Q) # query: phosphorylation enrichment of entry GNHISYFQSDG [CACNA1C_Y1757_V1755I_YF]
A) 0.39

Q) # query: phosphorylation enrichment of entry SHNELYYEEAE [VANGL1_Y344]
A) 1.03

Q) # query: phosphorylation enrichment of entry QKMLDYLKEKK [RYR2_Y3780]
A) 0.442

Q) # query: phosphorylation enrichment of entry VGTTAYVAPEA [IRAK4_Y354_M355V]
A) 0.424

Q) # query: phosphorylation enrichment of entry YENGEYIVRQG [PRKG1_Y247_I249V]
A) 0.483

Q) # query: phosphorylation enrichment of entry SMGMKYLEEKN [ZAP70_Y451]
A) 0.454

Q) # query: phosphorylation enrichment of entry GGSSPYSRRLA [CDK13_Y351_P356A]
A) 0.344

Q) # query: phosphorylation enrichment of entry SILTVYSKDNY [PANK2_Y400_A398T]
A) 0.388

====

- target_under_test: MERTK (UniProt Q12866)
- Sequence (Q12866 whole entry, looked up): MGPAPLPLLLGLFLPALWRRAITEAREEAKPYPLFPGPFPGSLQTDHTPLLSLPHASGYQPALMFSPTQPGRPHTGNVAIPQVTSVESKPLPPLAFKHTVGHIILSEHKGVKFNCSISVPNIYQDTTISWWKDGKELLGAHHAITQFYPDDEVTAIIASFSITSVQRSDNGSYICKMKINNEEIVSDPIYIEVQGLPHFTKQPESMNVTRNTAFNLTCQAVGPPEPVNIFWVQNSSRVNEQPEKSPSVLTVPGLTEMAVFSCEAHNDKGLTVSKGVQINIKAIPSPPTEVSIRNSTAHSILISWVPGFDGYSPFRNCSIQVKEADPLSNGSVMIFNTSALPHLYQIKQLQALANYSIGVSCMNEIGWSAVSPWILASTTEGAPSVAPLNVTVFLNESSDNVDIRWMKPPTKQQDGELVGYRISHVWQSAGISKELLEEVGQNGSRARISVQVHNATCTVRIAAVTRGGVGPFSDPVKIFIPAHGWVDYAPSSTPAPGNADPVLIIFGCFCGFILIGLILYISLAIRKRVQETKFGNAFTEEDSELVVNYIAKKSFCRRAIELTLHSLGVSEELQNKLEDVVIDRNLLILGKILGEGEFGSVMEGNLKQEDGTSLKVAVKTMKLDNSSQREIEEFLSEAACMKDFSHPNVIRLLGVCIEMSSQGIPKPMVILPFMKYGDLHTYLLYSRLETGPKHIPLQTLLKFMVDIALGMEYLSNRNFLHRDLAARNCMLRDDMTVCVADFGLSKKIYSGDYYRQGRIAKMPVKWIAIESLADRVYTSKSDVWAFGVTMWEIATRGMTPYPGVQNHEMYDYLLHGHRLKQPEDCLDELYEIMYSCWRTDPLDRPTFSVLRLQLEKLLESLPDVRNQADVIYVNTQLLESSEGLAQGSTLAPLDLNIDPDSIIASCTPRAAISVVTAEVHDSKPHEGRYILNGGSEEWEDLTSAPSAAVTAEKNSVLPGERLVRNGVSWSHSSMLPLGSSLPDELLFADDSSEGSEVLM
- experimental_details: phosphorylation enrichment, bacterial display (enrichment ratio); higher = better substrate or ligand; peptides without Tyr show the background
readout_label: phosphorylation enrichment
Respond using a number only.

Example cases with answers are listed next.
>>> df
                             biosequence  measured_number
0              HKDNNYVSMWF [PAPOLG_Y432]              1.5
1  TFEPNYGTVKR [RAPGEF6_Y1447_Q1452R_YF]            0.385
2        KKLHKYNTQFQ [PIK3R1_Y452_E451K]            0.487
3              LGLTVYADCLA [ABCA4_Y2063]            0.369
4       PLGKDYRKVEG [MAP1A_Y1909_A1912V]            0.741

Q) Any idea what phosphorylation enrichment came out for KFVVVYFRETD [IL17RB_Y447_I451T_YF] on MERTK (UniProt Q12866)?
A) 0.417

Q) Any idea what phosphorylation enrichment came out for KKCTRYIDCAL [ASPA_Y64_D68A] on MERTK (UniProt Q12866)?
A) 0.338

Q) Any idea what phosphorylation enrichment came out for VPDTNYTSDEE [STK33_Y439_A437T] on MERTK (UniProt Q12866)?
A) 0.437

Q) Any idea what phosphorylation enrichment came out for IEEGTYGVAYR [CDK11B_Y449_V452A] on MERTK (UniProt Q12866)?
A) 2.22

Q) Any idea what phosphorylation enrichment came out for KGEDFYCVTRH [FHL1_Y149_C153R] on MERTK (UniProt Q12866)?
A) 0.82

Q) Any idea what phosphorylation enrichment came out for CDTKLYTSVPN [DNTTIP2_Y427_A430V] on MERTK (UniProt Q12866)?
A) 1.5

Q) Any idea what phosphorylation enrichment came out for LLIMEYAKFGS [RET_Y806_V804M_YF] on MERTK (UniProt Q12866)?
A) 0.701

Q) Any idea what phosphorylation enrichment came out for MGHVNYGAYIN [GLB1_Y485_R482H] on MERTK (UniProt Q12866)?
A) 0.358

====

- target_under_test: Fyn (UniProt P06241)
- Sequence (P06241 whole entry, looked up): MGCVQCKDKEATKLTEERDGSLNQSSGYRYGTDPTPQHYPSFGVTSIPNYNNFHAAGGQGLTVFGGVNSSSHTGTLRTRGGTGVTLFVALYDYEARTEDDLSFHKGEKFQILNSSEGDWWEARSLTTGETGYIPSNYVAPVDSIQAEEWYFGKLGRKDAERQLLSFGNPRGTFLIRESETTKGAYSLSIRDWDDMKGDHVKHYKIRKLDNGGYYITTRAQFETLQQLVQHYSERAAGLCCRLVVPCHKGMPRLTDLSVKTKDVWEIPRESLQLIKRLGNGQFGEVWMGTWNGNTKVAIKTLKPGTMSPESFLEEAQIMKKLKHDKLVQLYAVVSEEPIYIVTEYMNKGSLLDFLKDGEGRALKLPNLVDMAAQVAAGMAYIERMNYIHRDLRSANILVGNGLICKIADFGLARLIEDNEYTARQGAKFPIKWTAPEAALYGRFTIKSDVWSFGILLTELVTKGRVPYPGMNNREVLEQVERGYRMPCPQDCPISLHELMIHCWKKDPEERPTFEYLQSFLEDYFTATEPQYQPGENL
- experimental_details: phosphorylation enrichment, bacterial display (enrichment ratio); higher = better substrate or ligand; peptides without Tyr show the background
readout_label: phosphorylation enrichment
Respond using a number only.

Example cases with answers are listed next.
>>> print(df.to_string())
                        biosequence  measured_number
0    LASSEYPVQRR [GALK1_Y236_R239Q]             1.07
1  NTFEKYWLFFQ [GATM_Y103_P105L_YF]            0.501
2          NRLNDYIFSFD [RARS1_Y516]            0.461

Q) # query: phosphorylation enrichment of entry FFSSEYHCVGG [CTSC_Y345_Y347C_YF]
A) 1.58

Q) # query: phosphorylation enrichment of entry FGGTVYHSPVS [PRC1_Y511]
A) 0.588

Q) # query: phosphorylation enrichment of entry HQEPVCSVAFS [TBL1X_Y509_Y509C]
A) 0.658

Q) # query: phosphorylation enrichment of entry IEEGTYGVAYR [CDK11B_Y449_V452A]
A) 7.54

====

- Tested on: Fer (mouse)
- experimental_details: phosphorylation enrichment, bacterial display (enrichment ratio); higher = better substrate or ligand; peptides without Tyr show the background
The following sequences are shown together with reported phosphorylation enrichment values.
Respond using a number only.

Example cases with answers are listed next.
                         biosequence  measured_number
0  HHIDFYKETTN [FGFR1_Y654_K656E_YF]            0.889
1   ILGLEYSLRLP [HELZ2_Y1304_V1308L]            0.649
2     EKKDVYKTGEQ [CFH_Y1008_A1010T]            0.447
3     DPGVSYCTREE [PDHA1_Y301_R302C]            0.481
4           ARGMEYLASQK [FGFR2_Y616]             0.37
5   ARMTNCGLPRY [TSPAN12_Y138_Y138C]            0.335

The record that follows has no phosphorylation enrichment shown yet.
Q) # query: phosphorylation enrichment of entry FSAGTYPRMEE [SYCN_Y108_L111M]
A) 0.417

====

- Tested on: AncSZ
- experimental_details: phosphorylation enrichment, bacterial display (enrichment ratio); higher = better substrate or ligand; peptides without Tyr show the background
Where phosphorylation enrichment equals or exceeds 0.9, the correct label is TRUE; where it does not, the label is FALSE.

>>> print(df.to_string())
                      biosequence  group
0          PVVKLYATDGR [RP1_Y199]  FALSE
1   RFLERYIFNRE [HLA-DPB1_Y57_YF]  FALSE
2  PVFIKYLPEWT [PSEN1_Y240_L235P]   TRUE

As a next step, examine the sequence that follows.
Q) Is phosphorylation enrichment at least 0.9? Consider RKGIRYLTSGL [PIGA_Y82]
A) FALSE

====

- target_under_test: Fes (UniProt P07332)
- Sequence (P07332 whole entry, looked up): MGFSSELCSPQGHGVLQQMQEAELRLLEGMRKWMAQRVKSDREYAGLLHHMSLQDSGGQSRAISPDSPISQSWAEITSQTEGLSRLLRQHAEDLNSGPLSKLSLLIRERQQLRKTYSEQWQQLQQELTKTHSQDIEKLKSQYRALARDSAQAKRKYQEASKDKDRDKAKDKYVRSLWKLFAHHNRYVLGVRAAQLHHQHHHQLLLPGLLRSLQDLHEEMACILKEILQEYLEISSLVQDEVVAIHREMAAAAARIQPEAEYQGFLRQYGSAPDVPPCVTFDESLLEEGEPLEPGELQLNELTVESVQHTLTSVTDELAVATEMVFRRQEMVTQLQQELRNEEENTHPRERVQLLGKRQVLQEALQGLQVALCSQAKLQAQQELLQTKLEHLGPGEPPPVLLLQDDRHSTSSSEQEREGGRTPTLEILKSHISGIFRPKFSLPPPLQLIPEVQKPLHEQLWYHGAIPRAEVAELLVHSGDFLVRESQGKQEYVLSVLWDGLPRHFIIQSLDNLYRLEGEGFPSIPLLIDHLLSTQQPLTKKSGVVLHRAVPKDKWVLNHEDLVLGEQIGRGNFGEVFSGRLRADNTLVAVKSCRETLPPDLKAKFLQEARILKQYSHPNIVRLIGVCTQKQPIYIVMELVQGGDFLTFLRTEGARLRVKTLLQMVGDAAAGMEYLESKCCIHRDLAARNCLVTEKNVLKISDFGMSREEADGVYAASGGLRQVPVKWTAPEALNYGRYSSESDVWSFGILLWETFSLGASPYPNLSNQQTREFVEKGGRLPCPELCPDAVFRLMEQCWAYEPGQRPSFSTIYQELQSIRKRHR
- experimental_details: phosphorylation enrichment, bacterial display (enrichment ratio); higher = better substrate or ligand; peptides without Tyr show the background
readout_label: phosphorylation enrichment
Respond using a number only.

Q) Any idea what phosphorylation enrichment came out for MNLLGYRHVRS [CHST4_Y359] on Fes (UniProt P07332)?
A) 0.738

====

- target_under_test: c-Src SH2;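 further: peptide library displayed on the E. coli surface as eCPX fusions, selected cells deep-sequenced, score is each peptide's frequency after selection divided by its frequency in the input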
- experimental_details: SH2 binding enrichment of the phosphorylated peptide, bacterial display (enrichment ratio); higher = better substrate or ligand; peptides without Tyr show the background
Where SH2 binding enrichment equals or exceeds 0.9, the correct label is t; where it does not, the label is f.

Q) Is SH2 binding enrichment at least 0.9? Consider FEREQYADRTR [RBM4_Y355_A359T_YF]
A) f

Q) Is SH2 binding enrichment at least 0.9? Consider FTAVGYHKHIT [NOMO1_Y1137]
A) f

Q) Is SH2 binding enrichment at least 0.9? Consider GPKFGYDEIDN [ACOX1_Y232]
A) t

Q) Is SH2 binding enrichment at least 0.9? Consider YLENYYDLEKD [MMP3_Y42_K45E]
A) t

Q) Is SH2 binding enrichment at least 0.9? Consider PSSRDYKHNIK [PIGN_Y227]
A) f

Q) Is SH2 binding enrichment at least 0.9? Consider RGDSAYHSQRH [ERBB3_Y1132]
A) f

The measurements presented in this section are drawn from the supplement of paper PMC10065799.
